Tested on: PC-3
assay-overview: NCI single dose screen, PC-3
Format: cell-based
applied-conditions: Homo sapiens; PC-3, prostate cancer; single dose 10^−5 M; read-out: growth inhibition percentage
value-type: inhibition at 10 µM

Below, 9 molecules whose answers are already recorded.
molecule="CN1c2ccccc2C(=O)N(NC(=O)Nc2ccc(F)cc2)C1c1ccc([N+](=O)[O-])cc1 (stereo not shown) [Compound 6o]" value_type="inhibition at 10 µM" result=31%
molecule="CN1c2ccccc2C(=O)N(NC(=O)Nc2ccc(F)cc2)C1c1ccc(F)cc1 (stereo not shown) [Compound 6n]" value_type="inhibition at 10 µM" result=38.1%
molecule="CN1CN(NC(=O)Nc2ccccc2)C(=O)c2ccccc21 [Compound 6a]" value_type="inhibition at 10 µM" result="< 10%"
molecule="CC1N(NC(=O)Nc2ccc(F)cc2)C(=O)c2ccccc2N1C (stereo not shown) [Compound 6l]" value_type="inhibition at 10 µM" result="< 10%"
molecule="CN1c2ccccc2C(=O)N(NC(=O)Nc2ccccc2)C1c1ccccc1 (stereo not shown) [Compound 6c]" value_type="inhibition at 10 µM" result="< 10%"
molecule="CN1c2ccccc2C(=O)N(NC(=O)Nc2ccccc2)C1c1ccc(F)cc1 (stereo not shown) [Compound 6d]" value_type="inhibition at 10 µM" result=18.6%
molecule="CN1c2ccccc2C(=O)N(NC(=O)Nc2ccc(F)cc2)C1c1ccccc1 (stereo not shown) [Compound 6m]" value_type="inhibition at 10 µM" result=22.1%
molecule="CN1c2ccccc2C(=O)N(NC(=O)Nc2ccccc2)C1c1ccc([N+](=O)[O-])cc1 (stereo not shown) [Compound 6e]" value_type="inhibition at 10 µM" result="< 10%"
molecule="COc1ccc(NC(=O)NN2C(=O)c3ccccc3N(C)C2c2ccc(OC)cc2)cc1 (stereo not shown) [Compound 6j]" value_type="inhibition at 10 µM" result=10.8%

Q: Query inhibition at 10 µM on PC-3 for COc1ccc(C2N(NC(=O)Nc3ccc(F)cc3)C(=O)c3ccccc3N2C)cc1 (stereo not shown) [Compound 6p]
Result: 15.2%

----------
target-system: human recombinant COX-2 (Homo sapiens)
Sequence (P35354 18-604): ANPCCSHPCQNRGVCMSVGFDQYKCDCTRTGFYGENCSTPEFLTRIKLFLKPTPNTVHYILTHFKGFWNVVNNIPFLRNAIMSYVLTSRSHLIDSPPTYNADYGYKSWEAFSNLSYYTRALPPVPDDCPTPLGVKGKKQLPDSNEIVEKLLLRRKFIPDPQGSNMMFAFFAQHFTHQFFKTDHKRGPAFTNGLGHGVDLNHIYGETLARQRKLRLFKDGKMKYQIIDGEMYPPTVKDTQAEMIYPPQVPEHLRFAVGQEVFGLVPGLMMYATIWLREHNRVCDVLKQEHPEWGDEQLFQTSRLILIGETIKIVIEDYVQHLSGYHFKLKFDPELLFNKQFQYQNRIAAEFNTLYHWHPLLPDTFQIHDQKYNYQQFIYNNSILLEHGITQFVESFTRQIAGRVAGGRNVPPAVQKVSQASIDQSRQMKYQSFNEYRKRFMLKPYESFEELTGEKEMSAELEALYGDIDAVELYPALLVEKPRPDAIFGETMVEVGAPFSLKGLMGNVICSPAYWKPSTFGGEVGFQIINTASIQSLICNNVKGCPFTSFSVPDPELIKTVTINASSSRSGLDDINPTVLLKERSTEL
assay-overview: In vitro COX-2 inhibition assay kit (Cayman)
applied-conditions: human recombinant COX-2; mean ± SEM, n = 3 replicates
# Lookup of reported pIC50 keyed by entry
Field pIC50 (float): negative decimal logarithm of the concentration in molar.

Below, 4 compounds whose answers are already recorded.
compound="CN1c2ccccc2C(=O)N(NC(=O)Nc2ccccc2)C1c1ccccc1 (centres unmarked)" result=5.47
compound="CN1c2ccccc2C(=O)N(NC(=O)Nc2ccc(F)cc2)C1c1ccc(F)cc1 (centres unmarked)" result=6.19
compound="CN1c2ccccc2C(=O)N(NC(=O)Nc2ccccc2)C1c1ccc([N+](=O)[O-])cc1 (centres unmarked)" result=6.08
compound="CN1c2ccccc2C(=O)N(NC(=O)Nc2ccccc2)C1c1ccc(F)cc1 (centres unmarked)" result=5.68

Next compound, pIC50 to be filled in.
Q: Requested field: pIC50. Item: CC1N(NC(=O)Nc2ccc(F)cc2)C(=O)c2ccccc2N1C (centres unmarked)
Result: 5.83
